Values compiled from patent US20170066831A1.

# Tested On: T1, cynomolgus (Macaca fascicularis) ST2L extracellular domain with C-terminal His6 tag (Macaca fascicularis (cynomolgus), UniProt Q01638 19-321 (human entry))
# T1 construct: also called cyno ST2L-ECD; cynoST2L-ECD
# T1 chain: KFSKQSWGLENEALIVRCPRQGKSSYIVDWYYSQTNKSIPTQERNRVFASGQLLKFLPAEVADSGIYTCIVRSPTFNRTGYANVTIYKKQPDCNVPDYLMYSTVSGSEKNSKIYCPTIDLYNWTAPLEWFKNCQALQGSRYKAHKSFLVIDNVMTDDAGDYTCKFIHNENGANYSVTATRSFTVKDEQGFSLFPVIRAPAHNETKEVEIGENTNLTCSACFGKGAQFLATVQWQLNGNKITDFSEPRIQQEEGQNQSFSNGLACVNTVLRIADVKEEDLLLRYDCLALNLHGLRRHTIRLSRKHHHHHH
# Method Notes: SPR, mAb captured, ST2L-ECD in solution
Record form. Attribute: koff. Fill in for each entry.
Express the result in s⁻¹ but write the number alone.

Fill in: koff of STLM211 (antibody, V domains shown, frameworks VH3-23 / Vk-L6) VH: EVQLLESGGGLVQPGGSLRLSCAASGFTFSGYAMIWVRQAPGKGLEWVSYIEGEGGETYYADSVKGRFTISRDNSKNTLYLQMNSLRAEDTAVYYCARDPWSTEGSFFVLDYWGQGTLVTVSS VL: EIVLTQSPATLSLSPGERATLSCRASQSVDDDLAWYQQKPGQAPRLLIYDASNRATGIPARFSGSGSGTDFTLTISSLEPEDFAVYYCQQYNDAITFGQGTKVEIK is ___
0.00139

# iterate: STLM212 (antibody, V domains shown, frameworks VH3-23 / Vk-L6) VH: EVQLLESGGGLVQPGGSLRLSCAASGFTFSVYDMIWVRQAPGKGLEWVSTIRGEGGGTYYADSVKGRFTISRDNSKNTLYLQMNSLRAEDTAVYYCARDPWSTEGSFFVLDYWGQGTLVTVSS VL: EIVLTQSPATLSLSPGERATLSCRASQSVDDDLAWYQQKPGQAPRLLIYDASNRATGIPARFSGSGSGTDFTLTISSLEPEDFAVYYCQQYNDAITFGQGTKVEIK
0.000346

# iterate: STLM124 (antibody, V domains shown, frameworks VH3-23 / Vk-L6) VH: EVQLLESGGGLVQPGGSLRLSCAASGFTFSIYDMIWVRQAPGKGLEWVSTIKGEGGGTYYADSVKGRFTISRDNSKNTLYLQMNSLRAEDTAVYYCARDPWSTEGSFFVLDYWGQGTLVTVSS VL: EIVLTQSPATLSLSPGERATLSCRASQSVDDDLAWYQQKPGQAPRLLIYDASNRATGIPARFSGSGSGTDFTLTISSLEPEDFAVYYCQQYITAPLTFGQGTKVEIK
0.00257
